tested on: A549 cells; experiment: MTT cytotoxicity in A549 cells; assay type: cell-based; conditions: Homo sapiens, A549, hypoxia 24 h then normoxia 72 h, read-out: IC50 A549 Hypoxia
pIC50: −log10 of the molar value.
// reported pIC50 for each item listed

Take a look at these entries with their results.
Mol: C[C@H]1[C@@H](OCc2cn(Cc3cc4cc(Br)ccc4oc3=O)nn2)O[C@@H]2O[C@@]3(C)CC[C@H]4[C@H](C)CC[C@@H]1[C@@]24OO3
Reported Value: < 4.00
--
Mol: Cc1ccc2c(Cn3cc(CO[C@H]4O[C@@H]5O[C@@]6(C)CC[C@H]7[C@H](C)CC[C@@H]([C@H]4C)[C@@]57OO6)nn3)cc(=O)oc2c1
Reported Value: < 4.00

Noted for Cc1cc(C)c2c(OCc3cn(CCO[C@H]4O[C@@H]5O[C@@]6(C)CC[C@H]7[C@H](C)CC[C@@H]([C@H]4C)[C@@]57OO6)nn3)cc(=O)oc2c1 : its pIC50 reads < 4.00

====

tested on: A549 cells; assay: MTT cytotoxicity in A549 cells; type: cell-based; settings: Homo sapiens, A549, hypoxia 24 h then normoxia 72 h, read-out: IC50 A549 Hypoxia
pIC50: −log10 of the molar value.
Reported Metric: pIC50

Take a look at these entries with their results.
Molecule: COc1cccc2c1C(=O)c1c(O)c3c(c(O)c1C2=O)C[C@@](O)(C(=O)CO)C[C@@H]3O[C@H]1C[C@H](N)[C@H](O)[C@H](C)O1 [DOX, Doxorubicin, reference compound]
pIC50: < 5.70
--
Molecule: Cc1ccc2c(Cn3cc(CCO[C@H]4O[C@@H]5O[C@@]6(C)CC[C@H]7[C@H](C)CC[C@@H]([C@H]4C)[C@@]57OO6)nn3)cc(=O)oc2c1 [4h]
pIC50: < 4.00
--
Molecule: C[C@H]1[C@@H](O)O[C@@H]2O[C@@]3(C)CC[C@H]4[C@H](C)CC[C@@H]1[C@@]24OO3 [DHA, Dihydroartemisinin]
pIC50: < 4.00

// next entry
Noted for C[C@H]1[C@@H](OCCc2cn(Cc3cc(=O)oc4cc(O)ccc34)nn2)O[C@@H]2O[C@@]3(C)CC[C@H]4[C@H](C)CC[C@@H]1[C@@]24OO3 [4f] : its pIC50 reads < 4.00

====

tested on: HCT-116 cells; experiment: MTT cytotoxicity in HCT-116 cells; assay type: cell-based; conditions: Homo sapiens, HCT-116, hypoxia 24 h then normoxia 72 h, read-out: IC50 HCT-116 Hypoxia
// reported IC50 for each item listed

Compound: Cc1ccc2oc(=O)cc(Cn3cc(CCO[C@H]4O[C@@H]5O[C@@]6(C)CC[C@H]7[C@H](C)CC[C@@H]([C@H]4C)[C@@]57OO6)nn3)c2c1
IC50: > 100 µM
//
Compound: C[C@H]1[C@@H](OCc2cn(Cc3cc4cc(Br)ccc4oc3=O)nn2)O[C@@H]2O[C@@]3(C)CC[C@H]4[C@H](C)CC[C@@H]1[C@@]24OO3
IC50: > 100 µM
//
Compound: COc1cccc2c1C(=O)c1c(O)c3c(c(O)c1C2=O)C[C@@](O)(C(=O)CO)C[C@@H]3O[C@H]1C[C@H](N)[C@H](O)[C@H](C)O1 [DOX, Doxorubicin, reference compound]
IC50: > 2 µM
//
Compound: Cc1ccc2c(Cn3cc(CCO[C@H]4O[C@@H]5O[C@@]6(C)CC[C@H]7[C@H](C)CC[C@@H]([C@H]4C)[C@@]57OO6)nn3)cc(=O)oc2c1
IC50: > 100 µM

// next entry
Noted for C[C@H]1[C@@H](OCc2cn(Cc3cc4cc(Br)cc(Br)c4oc3=O)nn2)O[C@@H]2O[C@@]3(C)CC[C@H]4[C@H](C)CC[C@@H]1[C@@]24OO3 : its IC50 reads > 100 µM
